Listed next: entries and their corresponding pIC50.
# target under test: recombinant N-terminal GST-tagged human Rho kinase 2 (ROCK2, amino acids 1-552) (Homo sapiens)
# Construct: ROCK2, amino acids 1-552; purchased Invitrogen Inc. PV3759
# Sequence (O75116 1-552): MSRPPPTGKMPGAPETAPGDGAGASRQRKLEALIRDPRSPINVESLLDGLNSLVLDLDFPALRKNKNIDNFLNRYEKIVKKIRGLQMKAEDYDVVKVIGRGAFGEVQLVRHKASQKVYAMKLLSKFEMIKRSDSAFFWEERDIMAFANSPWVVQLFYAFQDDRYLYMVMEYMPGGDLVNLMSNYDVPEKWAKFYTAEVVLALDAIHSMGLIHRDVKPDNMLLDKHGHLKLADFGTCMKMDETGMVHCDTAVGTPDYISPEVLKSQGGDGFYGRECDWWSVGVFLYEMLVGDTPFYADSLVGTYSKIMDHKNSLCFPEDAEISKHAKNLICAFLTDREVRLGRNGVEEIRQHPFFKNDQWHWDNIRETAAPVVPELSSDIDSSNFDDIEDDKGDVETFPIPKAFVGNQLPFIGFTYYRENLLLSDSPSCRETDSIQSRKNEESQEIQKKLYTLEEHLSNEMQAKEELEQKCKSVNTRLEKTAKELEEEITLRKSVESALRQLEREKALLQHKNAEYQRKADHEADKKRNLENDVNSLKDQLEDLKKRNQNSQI
# test description: In vitro Rho kinase assay (luciferase-based ATP consumption), ROCK2
# Format: biochemical
# condition info: recombinant GST-tagged human ROCK2, luciferase-based ATP consumption; read-out: ROCK2 IC50
pIC50: −log10 of the molar value.

Previously resolved entries follow.
Cc1c(-c2ccnc(N)n2)sc2ccc(Cc3cccc(OCCCN)c3)cc12 ... > 5.30
Cc1c(-c2ccnc(N)n2)sc2ccc(C(=O)NCc3ccc(Cl)cc3)cc12 ... > 5.30
Cc1c(-c2ccnc(N)n2)sc2ccc(Nc3cccc(NC(=O)c4ccc(C(=O)O)cc4)c3)cc12 ... > 5.30

Item C#CCNC(=O)c1ccc2sc(-c3ccnc(N)n3)c(C)c2c1 [Example 331, Cc1c(sc2ccc(cc12)C(═O)NCC#C)-c3ccnc(N)n3] has what recorded pIC50?
> 5.30

Need pIC50, item Cc1c(-c2ccnc(N)n2)sc2ccc(C(=O)NCCCO)cc12 [Example 343, Cc1c(sc2ccc(cc12)C(═O)NCCCO)-c3ccnc(N)n3]
> 5.30

Fill blank: measured pIC50 of the compound Cc1c(-c2ccnc(N)n2)sc2ccc(CNC(=O)C(C)c3ccc(O)cc3)cc12 (centres unmarked) is ____.
> 5.30

What does the record list as pIC50 for Cc1c(-c2ccnc(N)n2)sc2ccc(C(=O)NC(C)CCc3ccccc3)cc12 (centres unmarked) ?
< 5.30

Look up pIC50 for this compound: COc1cccc(C#Cc2ccc3sc(-c4ccnc(N)n4)c(C)c3c2)c1
< 5.30
